From: PubChem BioAssay AID1460

- target_desc: Microtubule-associated protein tau (Homo sapiens)
- assay_summary: qHTS for Inhibitors of Tau Fibril Formation, Thioflavin T Binding; further: nearly all actives have a fitted effect of over 55% in size
- experimental_parameters: recombinant tau K18 P301L, heparin-induced fibrillization, ThT fluorescence; series mostly up to 57.4 µM
The campaign covered roughly 270,000 compounds. About 5,800 (2.1%) were called active. Roughly 16% stayed inconclusive and do not appear here. The call rests on the fitted dose curve; in most records, active means well fitted inhibition curve with a large enough effect; inconclusive means small, poorly fitted or top-dose-only effect; inactive means flat fitted curve, though single readings scatter. The list comes from a sample in which actives are over-represented; it also holds close analogues and randomly drawn compounds.
Assign a class; possible classes are true = active, false = inactive

Below are worked cases with known answers.
molecule	assigned_class
CCOc1ccc2nc(NC(=O)c3cc([N+](=O)[O-])ccc3N3CCOCC3)sc2c1	true
CC(=O)c1ccc(NC(=O)CSc2c(C(C)C)cnc3c2c(=O)n(C)c(=O)n3C)cc1	false
Cc1ccccc1CNC(=O)C1CCCN(S(=O)(=O)N(C)c2ccc(F)cc2)C1 (stereo not given)	false
CCn1c2c(c(=O)n3ncc(C(=O)N4CCN(c5ccccc5)CC4)c13)CN(Cc1ccc(OC)cc1)CC2	false

Hey, what did the test say about `Cc1ccc(C(=O)Cn2cc([N+](=O)[O-])nc2C)cc1` ?
false

---

- target_desc: Microtubule-associated protein tau (Homo sapiens) (UniProt P10636)
- Sequence (P10636 561-689 P618L limits assumed): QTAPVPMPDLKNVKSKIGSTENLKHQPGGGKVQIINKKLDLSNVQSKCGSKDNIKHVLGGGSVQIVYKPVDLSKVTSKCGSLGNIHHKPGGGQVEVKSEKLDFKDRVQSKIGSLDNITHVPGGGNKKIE
- assay_summary: qHTS for Inhibitors of Tau Fibril Formation, Thioflavin T Binding; further: nearly all actives have a fitted effect of over 55% in size
- experimental_parameters: recombinant tau K18 P301L, heparin-induced fibrillization, ThT fluorescence; series mostly up to 57.4 µM
About 5,800 (2.1%) of roughly 270,000 compounds were called active. Inconclusive results (about 16%) are left out. Calls come from the whole dose curve; as a rule, active = well fitted inhibition curve with a large enough effect; inconclusive = small, poorly fitted or top-dose-only effect; inactive = flat fitted curve, though single readings scatter. The sample holds actives, similar compounds and a random draw of the others, so the mix is not that of the screen.
Assign a class; possible classes are label 1 = active, label 0 = inactive

Below are worked cases with known answers.
compound	assigned_class
CCCCN(CC)CCCNC(=O)Cn1ncc2c([nH]c3ccc(C)cc32)c1=O	label 0
CC(=O)N(C)c1ccc(NC(=O)C(F)(F)F)cc1	label 0
O=C(CN1CCN(Cc2ccccc2)CC1)NC(c1ccccc1)c1ccccc1	label 0
O=C(/C=C/Nc1ccccc1OC(F)(F)F)C(F)(F)F	label 0
O=[N+]([O-])c1ccc(N/N=C/c2ccccc2)cc1	label 1
Cc1noc(/C=C/N(C)C)c1S(=O)(=O)N1CCCC(C(=O)Nc2cccc(F)c2)C1 (stereo unspecified)	label 0

Hey, what did the test say about `Cc1ccccc1OCCOc1ccc([N+](=O)[O-])cc1/C=N/n1cnnc1` ?
label 0

---

- target_desc: Microtubule-associated protein tau (Homo sapiens)
- assay_summary: qHTS for Inhibitors of Tau Fibril Formation, Thioflavin T Binding; further: nearly all actives have a fitted effect of over 55% in size
- experimental_parameters: recombinant tau K18 P301L (four-repeat tau fragment), heparin-induced fibrillization, ThT fluorescence; series mostly up to 57.4 µM
Out of some 270,000 compounds screened, about 5,800 (2.1%) were called active. About 16% were inconclusive and are not listed. The call rests on the fitted dose curve; in most records, active means well fitted inhibition curve with a large enough effect; inconclusive means small, poorly fitted or top-dose-only effect; inactive means flat fitted curve, though single readings scatter. Shown is part of a subset that was picked to be rich in actives.
Assign a class; possible classes are class 1 (active), class 0 (inactive)

Below are worked cases with known answers.
molecule	assigned_class
COCC(C)NS(=O)(=O)c1ccc(N2CCCCS2(=O)=O)cc1 (stereo not given)	class 0
O=C(CCC1N=C2c3ccccc3N=C(SCc3ccccc3F)N2C1=O)NCCc1ccccc1 (stereo not given)	class 0

Hey, what did the test say about CCC(C)NC(=O)C1c2ccccc2Oc2ccccc21 (stereo not given) ?
class 0

Hey, what did the test say about `Cc1cc(/C=N/n2cnnc2)c(C)n1-c1cccc(C(=O)O)c1` ?
class 0

Hey, what did the test say about `O=C(Nc1ccc(Br)cc1)c1ccc(Br)c(S(=O)(=O)NCc2ccccc2)c1` ?
class 0
